Listing: IC50 of selected compounds
molecular target: DNA-dependent protein kinase catalytic subunit (Homo sapiens); assay: Inhibition of DNA dependent protein kinase isolated from HeLa cells
Sequence (P78527 whole entry): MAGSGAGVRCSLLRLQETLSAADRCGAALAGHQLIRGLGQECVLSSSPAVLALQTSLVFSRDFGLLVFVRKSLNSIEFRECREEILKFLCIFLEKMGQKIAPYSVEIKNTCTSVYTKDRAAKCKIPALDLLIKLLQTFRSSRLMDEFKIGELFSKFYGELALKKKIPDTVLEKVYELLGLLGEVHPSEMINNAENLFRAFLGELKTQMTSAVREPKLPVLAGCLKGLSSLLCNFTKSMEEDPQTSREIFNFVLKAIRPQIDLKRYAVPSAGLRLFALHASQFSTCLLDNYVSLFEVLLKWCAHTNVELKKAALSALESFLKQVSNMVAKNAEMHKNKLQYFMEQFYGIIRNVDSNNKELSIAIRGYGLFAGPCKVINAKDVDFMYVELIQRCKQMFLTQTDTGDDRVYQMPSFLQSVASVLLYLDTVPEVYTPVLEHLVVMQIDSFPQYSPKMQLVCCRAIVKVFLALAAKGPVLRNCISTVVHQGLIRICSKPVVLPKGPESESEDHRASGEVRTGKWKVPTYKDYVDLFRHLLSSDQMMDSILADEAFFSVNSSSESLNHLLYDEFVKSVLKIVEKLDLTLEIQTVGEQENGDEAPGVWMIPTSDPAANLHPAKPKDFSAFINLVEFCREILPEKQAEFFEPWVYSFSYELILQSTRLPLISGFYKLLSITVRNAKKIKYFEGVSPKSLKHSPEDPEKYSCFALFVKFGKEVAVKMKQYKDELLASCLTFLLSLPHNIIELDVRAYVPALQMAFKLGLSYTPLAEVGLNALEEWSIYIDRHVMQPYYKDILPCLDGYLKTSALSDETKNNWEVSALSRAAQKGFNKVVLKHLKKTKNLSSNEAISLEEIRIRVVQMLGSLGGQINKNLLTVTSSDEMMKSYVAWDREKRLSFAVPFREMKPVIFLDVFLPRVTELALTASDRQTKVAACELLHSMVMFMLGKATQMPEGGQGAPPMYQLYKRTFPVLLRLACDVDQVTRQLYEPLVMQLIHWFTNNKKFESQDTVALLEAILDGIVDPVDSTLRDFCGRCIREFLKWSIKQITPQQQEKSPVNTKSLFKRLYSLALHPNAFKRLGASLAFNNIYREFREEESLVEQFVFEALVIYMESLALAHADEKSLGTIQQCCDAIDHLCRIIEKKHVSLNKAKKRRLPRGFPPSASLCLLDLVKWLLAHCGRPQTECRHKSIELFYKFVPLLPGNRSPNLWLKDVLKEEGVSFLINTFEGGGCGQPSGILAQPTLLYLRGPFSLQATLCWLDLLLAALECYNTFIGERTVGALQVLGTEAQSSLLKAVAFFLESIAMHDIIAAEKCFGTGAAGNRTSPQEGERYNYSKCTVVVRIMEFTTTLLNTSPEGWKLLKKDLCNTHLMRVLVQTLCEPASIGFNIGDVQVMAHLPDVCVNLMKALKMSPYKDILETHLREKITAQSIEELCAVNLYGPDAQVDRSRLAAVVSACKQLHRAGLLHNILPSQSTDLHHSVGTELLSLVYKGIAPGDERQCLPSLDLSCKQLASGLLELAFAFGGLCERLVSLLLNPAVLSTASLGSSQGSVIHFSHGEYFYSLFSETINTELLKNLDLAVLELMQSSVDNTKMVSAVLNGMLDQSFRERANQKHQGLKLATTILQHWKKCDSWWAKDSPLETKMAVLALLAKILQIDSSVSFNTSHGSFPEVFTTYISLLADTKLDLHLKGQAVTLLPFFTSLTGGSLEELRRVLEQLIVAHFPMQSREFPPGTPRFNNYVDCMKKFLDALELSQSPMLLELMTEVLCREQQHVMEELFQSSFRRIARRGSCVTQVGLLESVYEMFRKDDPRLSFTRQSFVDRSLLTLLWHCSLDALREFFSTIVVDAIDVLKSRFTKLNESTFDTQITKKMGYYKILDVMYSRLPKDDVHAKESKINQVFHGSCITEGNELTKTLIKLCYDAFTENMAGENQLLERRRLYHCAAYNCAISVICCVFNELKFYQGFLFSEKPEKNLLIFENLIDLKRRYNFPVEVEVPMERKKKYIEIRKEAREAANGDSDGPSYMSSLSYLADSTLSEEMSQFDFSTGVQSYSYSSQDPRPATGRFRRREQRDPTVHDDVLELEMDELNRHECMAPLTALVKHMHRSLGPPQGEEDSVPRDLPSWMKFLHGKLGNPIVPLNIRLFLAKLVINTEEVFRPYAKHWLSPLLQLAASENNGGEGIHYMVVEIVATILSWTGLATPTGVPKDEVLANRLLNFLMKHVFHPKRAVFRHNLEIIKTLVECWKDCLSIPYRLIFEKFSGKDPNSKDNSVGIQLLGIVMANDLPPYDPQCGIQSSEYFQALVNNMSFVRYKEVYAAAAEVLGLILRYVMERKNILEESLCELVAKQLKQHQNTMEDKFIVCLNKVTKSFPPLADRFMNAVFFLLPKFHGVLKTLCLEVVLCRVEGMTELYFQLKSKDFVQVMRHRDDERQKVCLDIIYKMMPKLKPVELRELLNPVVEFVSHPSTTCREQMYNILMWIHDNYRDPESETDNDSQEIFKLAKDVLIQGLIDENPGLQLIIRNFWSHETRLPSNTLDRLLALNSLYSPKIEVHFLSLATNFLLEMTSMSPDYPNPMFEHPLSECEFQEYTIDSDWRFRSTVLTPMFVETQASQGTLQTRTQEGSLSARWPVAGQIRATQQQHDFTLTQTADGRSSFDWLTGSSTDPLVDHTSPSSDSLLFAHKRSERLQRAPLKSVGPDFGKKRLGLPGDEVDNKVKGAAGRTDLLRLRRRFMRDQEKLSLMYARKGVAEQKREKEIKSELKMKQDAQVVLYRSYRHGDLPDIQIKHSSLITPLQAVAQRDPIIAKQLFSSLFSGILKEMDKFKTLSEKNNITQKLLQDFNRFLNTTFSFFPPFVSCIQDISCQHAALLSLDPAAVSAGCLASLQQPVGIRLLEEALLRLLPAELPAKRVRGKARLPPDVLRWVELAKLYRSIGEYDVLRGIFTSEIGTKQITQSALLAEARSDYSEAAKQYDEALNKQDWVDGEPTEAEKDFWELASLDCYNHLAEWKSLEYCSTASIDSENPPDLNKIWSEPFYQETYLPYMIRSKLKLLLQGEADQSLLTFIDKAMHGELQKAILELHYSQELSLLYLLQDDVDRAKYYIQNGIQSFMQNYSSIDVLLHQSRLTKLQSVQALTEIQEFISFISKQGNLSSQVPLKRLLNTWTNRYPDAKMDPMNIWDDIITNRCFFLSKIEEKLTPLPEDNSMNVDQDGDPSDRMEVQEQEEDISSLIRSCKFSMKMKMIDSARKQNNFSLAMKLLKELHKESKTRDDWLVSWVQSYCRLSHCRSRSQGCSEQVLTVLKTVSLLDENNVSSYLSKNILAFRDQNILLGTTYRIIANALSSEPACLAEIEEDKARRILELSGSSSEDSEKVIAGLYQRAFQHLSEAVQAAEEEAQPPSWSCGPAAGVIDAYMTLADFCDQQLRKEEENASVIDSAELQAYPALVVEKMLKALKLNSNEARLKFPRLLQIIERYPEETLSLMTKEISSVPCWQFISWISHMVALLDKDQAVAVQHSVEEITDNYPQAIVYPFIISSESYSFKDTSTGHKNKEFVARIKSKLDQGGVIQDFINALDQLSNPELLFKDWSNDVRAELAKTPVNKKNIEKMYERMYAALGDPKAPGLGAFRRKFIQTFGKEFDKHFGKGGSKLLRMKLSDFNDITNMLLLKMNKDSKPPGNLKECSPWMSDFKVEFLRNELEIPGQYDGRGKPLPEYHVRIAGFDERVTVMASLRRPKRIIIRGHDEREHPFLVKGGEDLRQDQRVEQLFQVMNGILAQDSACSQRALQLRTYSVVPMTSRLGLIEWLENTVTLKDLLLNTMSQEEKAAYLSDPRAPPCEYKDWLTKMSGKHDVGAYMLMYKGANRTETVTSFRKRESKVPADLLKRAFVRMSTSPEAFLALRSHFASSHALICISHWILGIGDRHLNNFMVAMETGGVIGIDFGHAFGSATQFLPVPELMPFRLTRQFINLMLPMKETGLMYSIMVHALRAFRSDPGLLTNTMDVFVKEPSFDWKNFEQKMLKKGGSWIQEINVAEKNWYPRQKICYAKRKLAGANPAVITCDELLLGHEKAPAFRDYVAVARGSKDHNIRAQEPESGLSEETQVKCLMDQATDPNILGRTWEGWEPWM
property-label: IC50 (µM)

1. O=c1cc(-c2cccc(F)c2)oc2c1ccc1ccccc12 : 5.71
2. O=c1cc(N2CCSCC2)oc2c1ccc1ccccc12 : 1.38
3. O=c1cc(N2CCSCC2)c2cc3ccccc3cc2o1 : 5.15
4. O=c1cc(N2CCOCC2)oc2ccc(-c3ccccc3)cc12 : 2.24
5. COc1ccc2c(N3CCOCC3)cc(=O)oc2c1 : 11.3

---

molecular target: Serine/threonine-protein kinase mTOR (Homo sapiens); assay: Inhibition of mTOR protein isolated from HeLa cells
IC50 listing for selected molecules.
property-label: IC50

1) O=c1cc(N2CCOCC2)nc2c3ccccc3ccn12 : 5.3 µM
2) CC1CN(c2cc(=O)c3ccc4ccccc4c3o2)CCO1 (configuration not stated) : 4.8 µM
